- System: velvetleaf (Abutilon theophrasti)
- Assay Notes: Test A pre-/postemergence: velvetleaf
- Type: in vivo
- Experimental Setup: Preemergence, 125 g ai/ha; 0 to 100 scale where 0 is no effect and 100 is complete control

# Smiles Structure, Plant response rating, Velvetleaf
measured = [
    ("CCCCc1nn(-c2ccc(C(F)(F)F)cc2)nc1Oc1ccnc(C(F)(F)F)c1", 0),
    ("CC(C)Oc1nn(-c2ccc(C(F)(F)F)cc2)nc1Cc1ccnc(C(F)(F)F)c1", 0),
    ("FC(F)(F)c1cccc(-n2nc(Oc3ccnc(C(F)(F)F)c3)c(C3CC3)n2)c1", 0),
    ("Cc1nn(-c2ccc(F)c(C(F)(F)F)c2)nc1Cc1ccnc(C(F)(F)F)c1", 30),
    ("CCCc1nn(-c2ccc(C(F)(F)F)cc2)nc1Oc1ccnc(C(F)(F)F)c1", 90),
    ("Cc1nn(-c2ccc(F)cc2)nc1Oc1cccc(C(F)(F)F)c1", 0),
    ("CCCc1nn(-c2ccc(F)cc2)nc1Oc1ccnc(C(F)(F)F)c1", 30),
    ("COc1nn(-c2ccc(C(F)(F)F)cc2)nc1Cc1ccnc(C(F)F)c1", 70),
    ("Cc1nn(-c2ccnc(Cl)c2)nc1Cc1ccnc(C(F)(F)F)c1", 20),
]

* * *

Listed next: entries and their corresponding Plant response rating: Bluegrass.
- Tested on: bluegrass (annual bluegrass, Poa annua)
- Assay Notes: Test D pre-/postemergence: bluegrass
- Assay type: in vivo
- Experimental Setup: Postemergence, 62 g ai/ha; scale 0 to 100 (0 no effect, 100 complete control)
Reported Metric: Plant response rating: Bluegrass

# Smiles Structure, Reported Metric, Data Value
rows = [
    ("COc1nn(-c2ccc(C(F)(F)F)cc2)nc1Cc1ccnc(C(F)(F)F)c1", "Plant response rating: Bluegrass", 25),
    ("Cc1nn(-c2ccc(C(F)(F)F)cc2)nc1Oc1ccnc(C(F)(F)F)c1", "Plant response rating: Bluegrass", 40),
    ("COc1nn(-c2ccc(C(F)(F)F)cc2)nc1Cc1ccnc(C(F)F)c1", "Plant response rating: Bluegrass", 50),
    ("FC(F)(F)COc1nn(-c2ccc(C(F)(F)F)cc2)nc1Cc1ccnc(C(F)(F)F)c1", "Plant response rating: Bluegrass", 35),
    ("CCc1nn(-c2ccc(C(F)(F)F)cc2)nc1Cc1ccnc(C(F)(F)F)c1", "Plant response rating: Bluegrass", 75),
]

* * *

Listed next: entries and their corresponding Plant response rating, Goosegrass.
- Tested on: goosegrass (Eleusine indica)
- Assay Notes: Test C pre-/postemergence: goosegrass
- Assay type: in vivo
- Experimental Setup: Postemergence, 31 g ai/ha; scale 0 to 100 (0 no effect, 100 complete control)
Reported Metric: Plant response rating, Goosegrass

# Compound, Reported Metric, Data Value
rows = [
    ("Fc1ccc(-n2nc(Cc3ccnc(C(F)(F)F)c3)c(OC(F)F)n2)cc1 [Compound 25]", "Plant response rating, Goosegrass", 15),
    ("FC(F)(F)c1ccc(-n2nc(Cl)c(Cc3ccnc(C(F)(F)F)c3)n2)cc1 [Compound 28]", "Plant response rating, Goosegrass", 20),
    ("FC(F)(F)COc1nn(-c2ccc(C(F)(F)F)cc2)nc1Cc1ccnc(C(F)(F)F)c1 [Compound 14]", "Plant response rating, Goosegrass", 5),
    ("COc1nn(-c2ccc(C(F)(F)F)cc2)nc1Cc1ccnc(C(F)F)c1 [Compound 138]", "Plant response rating, Goosegrass", 5),
    ("Cc1nn(-c2ccnc(Cl)c2)nc1Cc1ccnc(C(F)(F)F)c1 [Compound 141]", "Plant response rating, Goosegrass", 35),
    ("FC(F)Oc1nn(-c2ccc(C(F)(F)F)cc2)nc1Cc1ccnc(C(F)(F)F)c1 [Compound 26]", "Plant response rating, Goosegrass", 25),
]
